Test: Oral bioavailability in mice, Method B
Assay type: in vivo
Settings: brain, CD-1 mice, 10 mg/kg po, Method B: values represent AUC0-last (footnote)

| compound | AUC0-last (po) |
| --- | --- |
| [2H]C([2H])([2H])N[C@@]1(c2ccccc2)CCCCC1=O [Compound 88R] | 143,445 ng*min/g |
| N[C@@]1(c2ccccc2)CCCCC1=O [Compound 11R, (R)-2-amino-2-phenyl-cyclohexan-1-one] | 220,091 ng*min/g |
| CN[C@]1(c2cccc(F)c2)CCCCC1=O [Compound 19S] | 23,552 ng*min/g |
| Cc1ccccc1[C@]1(N)CCCCC1=O [Compound 114R, (R)-2-amino-2-(o-tolyl)cyclohexan-1-one] | 38,185 ng*min/g |
| N[C@]1(c2ccccc2)CCCCC1=O [Compound 11S, (S)-2-amino-2-phenyl-cyclohexan-1-one] | 292,247 ng*min/g |
| Cc1ccccc1[C@@]1(N)CCCCC1=O [Compound 114S, (S)-2-amino-2-(o-tolyl)cyclohexan-1-one] | 86,338 ng*min/g |

Values compiled from patent US11344510B2.
